test: Phase 1 pharmacokinetics of ilorasertib in plasma; assay type: in vivo, human; conditions: human, plasma, po, 40 mg, Cmax, arm A, oral once weekly, first dose, N=1
Measure: Cmax (ng/mL)
State just the number; it will be interpreted in ng/mL.

Tell me measured Cmax for Nc1ncc(-c2cnn(CCO)c2)c2scc(-c3ccc(NC(=O)Nc4cccc(F)c4)cc3)c12 [Ilorasertib] please.
198

----------
test: Phase 1 pharmacokinetics of ilorasertib in plasma; type: in vivo, human; conditions: human, plasma, po, 40 mg, Tmax, arm A, oral once weekly, first dose, N=1
Measure: Tmax (h)
Please respond with the number in h and leave the unit unwritten.

Specify reported Tmax for the molecule shown: Nc1ncc(-c2cnn(CCO)c2)c2scc(-c3ccc(NC(=O)Nc4cccc(F)c4)cc3)c12 [Ilorasertib]
3

----------
test: Phase 1 pharmacokinetics of ilorasertib in plasma; type: in vivo, human; details: human, plasma, iv, 32 mg, AUC0–24, arm D, IV infusion, 32 mg, day 15, N=3, mean ± SD
Measure: AUC(0-t) (ng·h/mL)
Quick note: give the figure in ng·h/mL, leave out the unit.

# return recorded AUC(0-t) for entry Nc1ncc(-c2cnn(CCO)c2)c2scc(-c3ccc(NC(=O)Nc4cccc(F)c4)cc3)c12 [Ilorasertib]
8220

----------
assay: Phase 1 pharmacokinetics of ilorasertib in plasma; type: in vivo, human; settings: human, plasma, po, 40 mg
Measure: AUC(0-inf) (ng·h/mL)
Give the value, in units of ng·h/mL, as a plain number.

Report measured AUC(0-inf); entry is Nc1ncc(-c2cnn(CCO)c2)c2scc(-c3ccc(NC(=O)Nc4cccc(F)c4)cc3)c12 [Ilorasertib]
1830

----------
assay: Phase 1 pharmacokinetics of ilorasertib in plasma; type: in vivo, human; details: human, plasma, po, 640 mg, AUC0–24, arm A, oral once weekly, first dose, N=6, mean ± SD
Measure: AUC(0-t) (µg·h/mL)
Express your answer in µg·h/mL, writing the number without its unit.

Please look at this compound and report its AUC(0-t): `Nc1ncc(-c2cnn(CCO)c2)c2scc(-c3ccc(NC(=O)Nc4cccc(F)c4)cc3)c12`
19.7

----------
assay: Phase 1 pharmacokinetics of ilorasertib in plasma; assay type: in vivo, human; conditions: human, plasma, po, 80 mg
Measure: AUC(0-t)

Determine from records and report AUC(0-t) for `Nc1ncc(-c2cnn(CCO)c2)c2scc(-c3ccc(NC(=O)Nc4cccc(F)c4)cc3)c12`
1220 ng·h/mL

----------
assay: Phase 1 pharmacokinetics of ilorasertib in plasma; type: in vivo, human; settings: human, plasma, iv, 32 mg, t1/2, arm D, IV infusion, 32 mg, day 1, N=4
Measure: half-life (h)
Just the number in h, nothing appended.

Give the reported half-life for this molecule. `Nc1ncc(-c2cnn(CCO)c2)c2scc(-c3ccc(NC(=O)Nc4cccc(F)c4)cc3)c12`
6.2

----------
experiment: Phase 1 pharmacokinetics of ilorasertib in plasma; assay type: in vivo, human; conditions: human, plasma, iv, 32 mg, Cmax, arm D, IV infusion, 32 mg, day 1, N=4, mean ± SD
Measure: Cmax (ng/mL)
# number only, unit ng/mL dropped from output

Answer with reported Cmax of Nc1ncc(-c2cnn(CCO)c2)c2scc(-c3ccc(NC(=O)Nc4cccc(F)c4)cc3)c12 [Ilorasertib]
587

----------
test: Phase 1 pharmacokinetics of ilorasertib in plasma; assay type: in vivo, human; conditions: human, plasma, iv, 32 mg, AUC0–24, arm D, IV infusion, 32 mg, day 1, N=4, mean ± SD
Measure: AUC(0-t) (ng·h/mL)
I only need the number, in ng·h/mL, no unit after it.

Read off the recorded AUC(0-t) for `Nc1ncc(-c2cnn(CCO)c2)c2scc(-c3ccc(NC(=O)Nc4cccc(F)c4)cc3)c12`
4980
